Numbers sourced from patent US8129557B2.

- testProtocol: Chemical stability: hydrolysis ratio after storage in water at room temperature
- Type: physicochemical
- assaySetup: stored in water at room temperature for 12 hours

{"compound": "COP(=O)(CCC(N)C(=O)O)Oc1ccc(Cl)cc1 (stereo not shown) [Example 4]", "Hydrolysis ratio (%)": 0}
{"compound": "COP(=O)(CCC(N)C(=O)O)Oc1ccc(C(F)(F)F)cc1 (stereo not shown) [Example 5]", "Hydrolysis ratio (%)": 0}
{"compound": "COP(=O)(CCC(N)C(=O)O)Oc1ccccc1 (stereo not shown) [Example 3]", "Hydrolysis ratio (%)": 0}
{"compound": "COP(=O)(CCC(N)C(=O)O)Oc1ccc(C#N)cc1 (stereo not shown) [Example 6]", "Hydrolysis ratio (%)": 12.3}
{"compound": "COP(=O)(CCC(N)C(=O)O)Oc1ccc(C)cc1 (stereo not shown) [Example 1]", "Hydrolysis ratio (%)": 0}
{"compound": "CCCCOP(=O)(CCC(N)C(=O)O)Oc1ccccc1 (stereo not shown) [Example 9]", "Hydrolysis ratio (%)": 0}
{"compound": "COP(=O)(CCC(N)C(=O)O)Oc1ccc2c(C)cc(=O)oc2c1 (stereo not shown) [Example 8]", "Hydrolysis ratio (%)": 6.0}
{"compound": "COP(=O)(CCC(N)C(=O)O)Oc1ccc([N+](=O)[O-])cc1 (stereo not shown) [Example 7]", "Hydrolysis ratio (%)": 48.6}
{"compound": "COP(=O)(CCC(N)C(=O)O)Oc1cccc(CC(=O)O)c1 (stereo not shown) [Example 11]", "Hydrolysis ratio (%)": 0}
{"compound": "COc1ccc(OP(=O)(CCC(N)C(=O)O)OC)cc1 (stereo not shown) [Example 2]", "Hydrolysis ratio (%)": 0}
